The following variants are listed with their measured self-cleavage values.
B1: CPEB3 Ribozyme (parent)
chain: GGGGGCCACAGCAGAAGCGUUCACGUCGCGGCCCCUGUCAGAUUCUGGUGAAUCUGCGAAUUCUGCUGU

Variants of: B1
run description: self-cleavage, relative activity (ratio to wild type); higher = more cleavage; co-transcriptional
reported endpoint: self-cleavage

residue sequence | value observed
GGGGGCCACAGCAGAAGCGUUCACGUCGCCGCCCCUGUCAGAUUCUGGUGACUCUGCGAAUUCUGCUGU [G30C A52C] | 0.506
GGGGGCCACAGCAGAAGCGUUCACGUCGCGGCCCCCGUCAGCUUCUGGUGAAUCUGCGAAUUCUGCUGU [U36C A42C] | 0.732
GGGGGCCGCAGCAGAAGCGUUCACGUCGCGGCCCCUGUCAGAUCCUGGUGAAUCUGCGAAUUCUGCUGU [A8G U44C] | 0.55
GGGGGCCACAGCAGAAGCGUUCACUUCGCGGCCCCUGUCAGAUUCUGGUGAAUCUGCGAAUUCUGCAGU [G25U U67A] | 0.145
GGGGGCCACAGCAGAAGUGCUCACGUCGCGGCCCCUGUCAGAUUCUGGUGAAUCUGCGAAUUCUGCUGU [C18U U20C] | 0.135
GGGGGCCACAGCAGAAGCGUUCACGUCGCGGCCCCUGUCAGAUUCUGGUGCAUCUGCGCAUUCUGCUGU [A51C A59C] | 0.658
GGGGGCCACAGCAGAAGCGUUCACGUCGCGGCCCCUGUCAGAUUCUGGAGAAUCUGCGCAUUCUGCUGU [U49A A59C] | 0.798

Where do the numbers come from? From the RNAGym collection of RNA variant scans (doi:10.7554/elife.80360).
